test: Human HepG2 cell viability assay in 384 well format; format: toxicity, cell-based; set-up: dose 125 nL, time 70.5 hour; concentration not given beside the values; details: HepG2 cells, read-out: Inhibition
Overview of recorded cytotoxicity at 70.5 h for various molecules
parameter: cytotoxicity at 70.5 h

molecule=NC(=O)CN(CC(=O)NCCc1c(F)cccc1F)C1CCCC1 parameter="cytotoxicity at 70.5 h" observed_measurement=23.5%
molecule="CC(=O)N1CCOC(c2c(C(=O)O)sc3ccccc23)C1 (stereo unspecified)" parameter="cytotoxicity at 70.5 h" observed_measurement=-7.22%
molecule=COC[C@@H]1CCC[C@]12CN(Cc1ccco1)CCO2 parameter="cytotoxicity at 70.5 h" observed_measurement=-1.04%
molecule=Cc1ccc(Cl)cc1NC(=O)Cn1cc(C(=O)O)ccc1=O parameter="cytotoxicity at 70.5 h" observed_measurement=4.77%
molecule=CSc1nc2cc(C)n(CC(=O)Nc3nccs3)c2c(=O)n1CC(C)C parameter="cytotoxicity at 70.5 h" observed_measurement=-6.26%
molecule=Nc1cc(C(=O)N2CCC3(CC2)Nc2ccccc2NC3=O)ccn1 parameter="cytotoxicity at 70.5 h" observed_measurement=19.6%
